measured-target: fungal (fACC2) (UniProt Q00955)
Sequence (Q00955 whole entry): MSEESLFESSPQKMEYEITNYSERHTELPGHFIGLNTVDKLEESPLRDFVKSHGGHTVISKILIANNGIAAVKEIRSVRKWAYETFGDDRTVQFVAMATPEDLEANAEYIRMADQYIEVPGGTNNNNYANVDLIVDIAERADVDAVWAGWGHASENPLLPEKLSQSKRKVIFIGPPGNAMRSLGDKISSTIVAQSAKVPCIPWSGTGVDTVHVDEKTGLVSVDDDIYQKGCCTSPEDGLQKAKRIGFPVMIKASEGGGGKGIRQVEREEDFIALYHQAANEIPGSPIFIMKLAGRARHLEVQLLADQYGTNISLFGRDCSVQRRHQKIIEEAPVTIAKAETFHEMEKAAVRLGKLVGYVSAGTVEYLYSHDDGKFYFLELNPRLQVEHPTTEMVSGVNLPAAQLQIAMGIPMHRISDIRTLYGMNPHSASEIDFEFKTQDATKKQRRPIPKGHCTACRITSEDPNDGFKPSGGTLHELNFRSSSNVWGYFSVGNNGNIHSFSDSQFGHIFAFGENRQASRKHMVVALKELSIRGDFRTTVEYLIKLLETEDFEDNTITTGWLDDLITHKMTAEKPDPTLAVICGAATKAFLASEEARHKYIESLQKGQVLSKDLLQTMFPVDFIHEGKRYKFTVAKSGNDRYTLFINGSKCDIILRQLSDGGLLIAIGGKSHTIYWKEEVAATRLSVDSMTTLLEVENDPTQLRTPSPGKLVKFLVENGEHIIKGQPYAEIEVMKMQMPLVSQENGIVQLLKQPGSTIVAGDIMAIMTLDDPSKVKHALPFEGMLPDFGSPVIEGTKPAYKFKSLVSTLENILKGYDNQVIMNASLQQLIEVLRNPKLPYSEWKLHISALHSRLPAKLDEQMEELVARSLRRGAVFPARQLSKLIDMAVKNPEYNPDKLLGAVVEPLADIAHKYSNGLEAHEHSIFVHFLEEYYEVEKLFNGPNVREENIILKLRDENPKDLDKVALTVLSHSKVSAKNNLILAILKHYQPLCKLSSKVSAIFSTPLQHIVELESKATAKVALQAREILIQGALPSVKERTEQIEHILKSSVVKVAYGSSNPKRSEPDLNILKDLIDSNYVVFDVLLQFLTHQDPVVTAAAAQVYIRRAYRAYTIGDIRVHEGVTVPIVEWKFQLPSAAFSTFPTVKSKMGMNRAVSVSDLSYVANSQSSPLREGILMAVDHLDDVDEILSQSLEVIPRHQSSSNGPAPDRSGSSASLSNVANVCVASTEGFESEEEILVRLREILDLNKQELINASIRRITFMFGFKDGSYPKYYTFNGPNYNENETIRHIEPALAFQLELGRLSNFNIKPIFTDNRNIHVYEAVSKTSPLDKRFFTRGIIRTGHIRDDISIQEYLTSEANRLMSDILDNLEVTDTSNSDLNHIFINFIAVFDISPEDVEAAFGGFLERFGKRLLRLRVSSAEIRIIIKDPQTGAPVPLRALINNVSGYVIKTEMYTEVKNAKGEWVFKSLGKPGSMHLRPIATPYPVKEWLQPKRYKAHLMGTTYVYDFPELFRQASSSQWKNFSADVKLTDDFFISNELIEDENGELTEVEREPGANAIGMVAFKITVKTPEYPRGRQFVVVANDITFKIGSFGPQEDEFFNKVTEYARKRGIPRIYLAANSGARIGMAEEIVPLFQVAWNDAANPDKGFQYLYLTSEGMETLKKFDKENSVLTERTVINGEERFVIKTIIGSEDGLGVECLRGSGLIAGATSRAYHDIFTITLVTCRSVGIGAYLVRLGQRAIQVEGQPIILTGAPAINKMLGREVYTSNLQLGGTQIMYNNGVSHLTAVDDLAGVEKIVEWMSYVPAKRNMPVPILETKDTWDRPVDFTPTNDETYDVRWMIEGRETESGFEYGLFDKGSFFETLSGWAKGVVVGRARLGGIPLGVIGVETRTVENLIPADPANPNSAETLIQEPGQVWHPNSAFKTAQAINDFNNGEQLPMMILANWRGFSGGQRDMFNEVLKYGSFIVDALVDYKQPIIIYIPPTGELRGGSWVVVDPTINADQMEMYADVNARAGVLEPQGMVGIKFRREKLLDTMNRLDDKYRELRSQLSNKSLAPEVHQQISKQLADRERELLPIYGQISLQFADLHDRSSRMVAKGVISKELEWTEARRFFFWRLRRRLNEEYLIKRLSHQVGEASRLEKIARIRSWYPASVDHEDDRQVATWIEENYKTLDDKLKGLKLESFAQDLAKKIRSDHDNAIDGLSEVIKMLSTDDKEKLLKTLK
condition: read-out: fACC2 (in vitro ACC2 Inhibition Assay, IC50); Table 2a; ADP-Glo, 5 nM ACC2, 20 μM ATP, 20 μM acetyl-CoA
Listing: IC50 of selected molecules
measured-endpoint: IC50

>>> reported_value("COCCO[C@@H](Cn1c(=O)n(CC(=O)NC(C)C)c(=O)c2c(C)c(-n3nccn3)sc21)c1cc(F)ccc1OC")
"1 to 5 nM"
>>> reported_value("COc1ccc(F)cc1[C@H](Cn1c(=O)n([C@@H](C)C(=O)N(C)C(C)C)c(=O)c2c(C)c(-n3nccn3)sc21)OCCO")
"1 to 5 nM"
>>> reported_value("COc1ccc(F)cc1[C@H](Cn1c(=O)n([C@H](C)C(N)=O)c(=O)c2c(C)c(-n3nccn3)sc21)OCC(C)(C)O")
"1 to 5 nM"
>>> reported_value("COc1ccc(F)cc1[C@H](Cn1c(=O)n(C(C)(C)C(=O)N2CCCCC2)c(=O)c2c(C)c(-n3nccn3)sc21)OC1CCC(=O)CC1")
"1 to 5 nM"
>>> reported_value("COCCO[C@@H](Cn1c(=O)n(C(C)C(=O)N2CCCC2)c(=O)c2c(C)c(-n3nccn3)sc21)c1cc(F)ccc1OC (stereo partly drawn)")
"1 to 5 nM"
>>> reported_value("COc1ccc(F)cc1[C@H](Cn1c(=O)n([C@H](C)C(=O)N(C)C(C)C)c(=O)c2c(C)c(-n3nccn3)sc21)O[C@H]1CC[C@@H](O)CC1")
"0.4 to 1 nM"
>>> reported_value("COCCO[C@@H](Cn1c(=O)n([C@@H](C)C(=O)NC(C)C)c(=O)c2c(C)c(-n3nccn3)sc21)c1cc(F)ccc1OC [Compound I-83]")
"1 to 5 nM"
>>> reported_value("COc1ccc(F)cc1[C@H](Cn1c(=O)n(C(C)(C)C(=O)NC(C)C)c(=O)c2c(C)c(-n3nccn3)sc21)OC[C@H](C)O")
"1 to 5 nM"
>>> reported_value("COc1ccc(F)cc1[C@H](Cn1c(=O)n([C@H](C)C(=O)N(C)C(C)C)c(=O)c2c(C)c(-n3nccn3)sc21)OCCC#N")
"5 to 10 nM"
>>> reported_value("COc1ccccc1[C@H](Cn1c(=O)n(C(C)(C)C(=O)O)c(=O)c2c(C)c(-n3nccn3)sc21)OC1CCOCC1")
"1 to 5 nM"
>>> reported_value("Cc1c(-n2nccn2)sc2c1c(=O)n(C(C)(C)C(=O)NC(C)C)c(=O)n2C[C@H](OC1CCOCC1)c1cc(F)ccc1OCCO")
"0.4 to 1 nM"
>>> reported_value("C=CCN(C)C(=O)C(C)(C)n1c(=O)c2c(C)c(-n3nccn3)sc2n(C[C@H](OC(C)C)c2cc(F)ccc2OC)c1=O")
"1 to 5 nM"
>>> reported_value("COCCOc1ccc(F)cc1[C@H](Cn1c(=O)n(C(C)(C)C(=O)N2CCCC2)c(=O)c2c(C)c(-n3nccn3)sc21)OC1CCOCC1")
"1 to 5 nM"
>>> reported_value("COc1ccc(F)cc1[C@H](Cn1c(=O)n(CC(=O)N2CCCC2)c(=O)c2c(C)c(-n3nccn3)sc21)OCCO")
"1 to 5 nM"
>>> reported_value("COc1ccc(F)cc1[C@H](Cn1c(=O)n(C(C)(C)C(=O)OC(C)C)c(=O)c2c(C)c(-n3nccn3)sc21)OCCO")
"1 to 5 nM"
>>> reported_value("COc1ccc(F)cc1[C@H](Cn1c(=O)n([C@H](C)C(=O)N(C)C(C)C)c(=O)c2c(C)c(-n3nccn3)sc21)OC1CCC(=O)CC1")
"1 to 5 nM"
>>> reported_value("COc1ccc(F)cc1[C@H](Cn1c(=O)n(C(C)(C)C(=O)NC2CCC2)c(=O)c2c(C)c(-n3nccn3)sc21)OCCC(C)=O")
"0.4 to 1 nM"
>>> reported_value("COc1ccc(F)cc1[C@H](Cn1c(=O)n([C@H](C)C(=O)NC(C)C)c(=O)c2c(C)c(-n3nccn3)sc21)OCCO")
"1 to 5 nM"
>>> reported_value("CNC(=O)C(C)(C)n1c(=O)c2c(C)c(-n3nccn3)sc2n(C[C@H](OCCC#N)c2cc(F)ccc2OC)c1=O")
"1 to 5 nM"
>>> reported_value("COc1ccc(F)cc1[C@H](Cn1c(=O)n(C(C)(C)C(=O)NCC(C)C)c(=O)c2c(C)c(-n3nccn3)sc21)OC1CCOCC1")
"1 to 5 nM"
>>> reported_value("COc1ccc(F)cc1[C@H](Cn1c(=O)n(C(C)(C)C(=O)NC2CCCCC2)c(=O)c2c(C)c(-n3nccn3)sc21)OC1CCOCC1")
"1 to 5 nM"
>>> reported_value("COc1ccc(F)cc1[C@H](Cn1c(=O)n(C(C)(C)C(=O)N2CC=CC2)c(=O)c2c(C)c(-n3nccn3)sc21)OC(C)C")
"1 to 5 nM"
>>> reported_value("COc1ccc(F)cc1[C@H](Cn1c(=O)n(C(C)(C)C(=O)O)c(=O)c2c(C)c(-n3nccn3)sc21)O[C@H]1CC[C@@H](C#N)CC1")
"0.4 to 1 nM"
>>> reported_value("COc1ccc(F)cc1[C@H](Cn1c(=O)n(C(C)(C)C(=O)N2CC=CC2)c(=O)c2c(C)c(-n3nccn3)sc21)OC[C@@H](C)O")
"0.4 to 1 nM"
